# Assay text: Antioxidant activity assessed as H2O2 scavenging activity
# Assay type: physicochemical
IC50 values by entry
Number in µg/mL, nothing else.

Consider the reported IC50 for these compounds:
> print(dat)
                         structure.notation  endpoint.result
1  COc1cc(/C=C/C(=O)/C=C(O)/C=C/c2ccc(OCC(=O)Nc3ccc(Cl)cc3)c(OC)c2)ccc1OCC(=O)Nc1ccc(Cl)cc1             65.4
2  COc1cc(/C=C/C(=O)/C=C(O)/C=C/c2ccc(OCC(=O)Nc3ccccc3)c(OC)c2)ccc1OCC(=O)Nc1ccccc1             63.7

# evaluate next
Query: // IC50 lookup, key: `COc1cc(/C=C/C(=O)/C=C(O)/C=C/c2ccc(OCC(=O)N(C)c3ccccc3)c(OC)c2)ccc1OCC(=O)N(C)c1ccccc1`
Reply: 63.21
